Values were extracted from patent US8598177B2.

Reported values of pIC50 for individual entries
Target: PAR1 (Homo sapiens)
Construct: endogenous in cells
Sequence (P25116 22-425): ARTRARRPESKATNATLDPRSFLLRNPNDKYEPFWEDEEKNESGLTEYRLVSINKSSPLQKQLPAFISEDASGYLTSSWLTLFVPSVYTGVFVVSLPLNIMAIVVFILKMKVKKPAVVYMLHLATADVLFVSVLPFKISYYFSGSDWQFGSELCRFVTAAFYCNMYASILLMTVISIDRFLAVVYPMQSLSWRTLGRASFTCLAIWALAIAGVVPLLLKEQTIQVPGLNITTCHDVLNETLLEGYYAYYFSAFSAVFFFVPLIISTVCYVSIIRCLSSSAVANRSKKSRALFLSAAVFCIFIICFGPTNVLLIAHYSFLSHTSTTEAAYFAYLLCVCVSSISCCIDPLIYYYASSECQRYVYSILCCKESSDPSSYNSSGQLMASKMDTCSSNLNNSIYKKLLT
Experiment: Inhibition of PAR1-mediated platelet aggregation induced by TRAP
Conditions: washed platelets from healthy volunteer donors, TRAP (70-100 μM solution) as agonist, 96-well format, AUC at 650 nm, 37° C., 20 minutes
Where a name gives a salt, the structure may show the parent alone.
Just so you know, pIC50 here is -log10 of the concentration in molar units; reply with that number alone.

Worked examples follow.
CCOc1cc2cn(CC(=O)c3cc(NC(C)=O)cc(S(F)(F)(F)(F)F)c3)c(=N)n2nc1OCC [Example 1, trifluoroacetic acid salt] : 8.30
CCOc1cc2cn(CC(=O)c3cc(N4CCOCC4)c(OC)c(C(C)(C)C)c3)c(=N)n2nc1OCC [Example 3, trifluoroacetic acid salt] : 8.40

Input COc1nn2c(=N)n(CC(=O)c3cc(N4CCOCC4)c(OC)c(C(C)(C)C)c3)cc2cc1OCC(F)(F)F [Example 4, trifluoroacetic acid salt] . Output pIC50: 6.74
